Listing of entries alongside the reported MIC.
system: Staphylococcus aureus; test: Antibacterial activity against Staphylococcus aureus after 24 hrs by MTT assay; assay type: functional
parameter-measured: MIC (µg/mL)

smiles-entry | unit-info | quantitative-result
O=C(Nc1ccccc1)N(Cc1cc(Br)cc(Br)c1O)c1ccccc1F | µg/mL | 25
Cc1ccc(NCc2cc(Br)cc(Br)c2O)cc1 | µg/mL | 50
Oc1ccc(Br)cc1CNc1ccc(Br)cc1 | µg/mL | 25
Oc1ccc(Br)cc1CNc1ccc(Cl)cc1 | µg/mL | 6.25
COc1ccc(N(Cc2cc(Br)cc(Br)c2O)C(=O)Nc2ccccc2)cc1 | µg/mL | 50
Cc1ccc(NCc2cc(Br)ccc2O)cc1 | µg/mL | 50
Oc1c(Br)cc(Br)cc1CNc1ccc(Br)cc1 | µg/mL | 50
